- Tested on: HCC 2998
- ASSAY DETAILS: NCI tumour cell line growth inhibition, 48 h
Activity calls are given as the source filed them. No stated cut-off is given here; in the data, active = GI50 up to about 1.1 µM and inactive = higher.
Respond using exactly one of the listed classes: active, inactive

Q: Outcome logged for CC(=O)NC(Cc1ccccc1)NC(=O)O (stereo not given) in this assay:
A: inactive

Q: Would you mind doing CNc1ccc2nc(-c3ccc(OC(=O)N(C)C)cc3)cn2c1 as well?
A: inactive

Q: Now try CC1(C)CC[C@]2(C(=O)O)CC[C@]3(C)C(=CCC4=C5C[C@H](O)[C@H](O)[C@@](C)(CO)[C@@]5(C)CC[C@]43C)[C@@H]2C1 .
A: inactive

Q: Would you kindly repeat that for CC(C)OP(=O)(OC(C)C)C(C(F)(F)F)C(F)(F)F ?
A: inactive

Q: Please do the same for CCOP1(=O)CC(C)=C(Cl)C(OC)C1 (stereo not given) as well.
A: inactive

Q: Also [O-][n+]1c(CN2CCCCC2)nc2cccc3c2c1-c1ccccc1-3 , if possible.
A: inactive

Q: Now try CC(=O)CC(C)(C)NC(=O)[C@@]1(O)CC[C@H]2[C@@H]3CCC4=CC(=O)CC[C@@H]4[C@H]3CC[C@@]21C .
A: inactive

Q: And for OCC1OC(NC(=S)NCSCCC(F)(F)C(F)(F)C(F)(F)C(F)(F)C(F)(F)C(F)(F)F)C(O)C(O)C1O (stereo not given) ?
A: inactive

Q: What do you have for CC(=O)[C@]1(O)Cc2c(O)c3c(c(O)c2C(OC2OC(C)C(O)C(O)C2F)C1)C(=O)c1ccccc1C3=O (stereo not given in full) ?
A: active

Q: # repeat for C=C1CCC2[C@](C)(CCC[C@]2(C)C(=O)O)[C@@H]1CCc1ccoc1 (stereo not given in full)
A: inactive
